protocolSummary: NCI Yeast Anticancer Drug Screen. Data for the mlh1 strain (AID 171);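 also: 0% = growth of vehicle-treated control cultures of the same strain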
protocolConditions: S. cerevisiae mlh1 strain growth inhibition; at 33.0 µM
The panel holds about 79,000 compounds, 15% with a hit somewhere; the sample as a whole holds those more often. Activity calls are given as the source filed them. Rule as the data show it: active = growth inhibition above about 70%; inactive = the rest.
Lab note: assign the record to one of 1 (yes) = active, 0 (no) = inactive

# compound, labelValue
data = [
    ("COc1ccc(/C=C(/C)[N+](=O)[O-])cc1", "1 (yes)"),
]

Ask: Fill in: this test's call for O=C(/C=C(\c1ccccc1)N1CC1)c1ccccc1 is ___
Result: 0 (no)

Ask: What was the test verdict on COC(=O)c1c(C)ccc2c(O)c3c(cc12)C(=O)c1c2c(cc(O)c1C3=O)C1(C)OC(C)(O2)C(O)C(N(C)C)C1O (configuration not stated) ?
Result: 1 (yes)

Ask: Recorded call for COc1cc2ccccc2c2cc([N+](=O)[O-])oc12 ?
Result: 0 (no)

Ask: Give the logged outcome of this assay for the following compound: Cc1ccc2c(c1)C1(C)c3cc(C)ccc3SP1S2 (configuration not stated)
Result: 0 (no)

Ask: Which outcome was assigned to CCN(CCCl)c1cc(CN(C)C)cc(NC(=O)c2ccc(C(=O)Nc3cc(CN(C)C)cc(N(CC)CCCl)c3)cc2)c1 in this test?
Result: 0 (no)

* * *

Quick reference for growth inhibition among some compounds
protocolSummary: NCI Yeast Anticancer Drug Screen. Data for the rad50EPP+ strain (AID 151);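 also: 0% = growth of vehicle-treated control cultures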
protocolConditions: S. cerevisiae rad50 mutant strain, at 1.2 µM, stronger effect = higher value
This is part of a sample that, as a whole, favours compounds with a hit. Of some 79,000 tested, about 15% had one in any assay. Activity calls are given as the source filed them. Rule as the data show it: active = growth inhibition above about 70%; inactive = the rest.

Consider the worked cases shown below.
# compound, resultValue
measured = [
    ("c1ccc(N=c2nc(N3CCOCC3)ss2)cc1", "-5% (inactive)"),
    ("BrCC[N+]12CC[N+](CCBr)(CC1)C2", "9% (inactive)"),
    ("Nc1nnc(N)n1-n1c(N)nnc1N", "1% (inactive)"),
    ("CNCC(O)c1ccc(O)c(O)c1.[Pt].c1ccc([PH+](c2ccccc2)c2ccccc2)cc1.c1ccc([PH+](c2ccccc2)c2ccccc2)cc1", "2% (inactive)"),
    ("CCN(CC)CCBr", "2% (inactive)"),
    ("OCC(O)C(O)CO (stereo not given) (tested in a mixture with another compound)", "1% (inactive)"),
]

For this compound ( COC(=O)C1C2c3ccccc3C(c3ccccc32)C1C(=O)OC (stereo not given) ), measured growth inhibition is 4% (inactive)

Measured growth inhibition, COc1cc([C@@H]2c3cc4c(cc3C[C@@H]3COC(=O)C32)OCO4)cc(OC)c1O (stereo not given in full) : -5% (inactive)

Record summary for NCCc1ccc(OCc2ccccc2)c(OCc2ccccc2)c1 : reported growth inhibition = -15% (inactive)

# compound CCOC(=O)C1C2c3ccccc3C(c3ccccc32)C1C(=O)OCC (stereo not given) ; its growth inhibition = -1% (inactive)

Lab note: O=c1oc2ccccc2c(O)c1C(c1ccc2c(c1)Cc1ccccc1-2)c1c(O)c2ccccc2oc1=O gave growth inhibition of -16% (inactive)

Reported growth inhibition of O=C1NC(=S)NC(=O)C1=Cc1ccc([N+](=O)[O-])o1 : 11% (inactive)

What the record says about Nc1ccc(Cl)cc1C(=O)c1ccccc1 : growth inhibition is -7% (inactive)

* * *

protocolSummary: NCI Yeast Anticancer Drug Screen. Data for the sgs1 mgt1 strain (AID 161);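 also: 0% = growth of cultures given vehicle only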
protocolConditions: S. cerevisiae sgs1 mgt1 strain, at 50.0 µM (retest, dose inferred, filed as 5.0), stronger effect = higher value
Description: Growth inhibition of yeast strains with defined genetic alterations is measured as a screen for potential anti-cancer activity. Selected strains with alterations in DNA damage repair or cell cycle control were exposed to compounds and growth inhibition was measured relative to vehicle treated controls. The strain used in this assay is sgs1 mgt1
Compounds without any hit were thinned out: in the full panel of roughly 79,000, 15% have a hit.
growth inhibition for assorted molecules
Express it in %; write the number only.

Examples from the recorded data:
# molecule, growth inhibition / %
measured = [
    ("Oc1ccc([Te]CCNCC[Te]c2ccc(O)cc2)cc1", 40),
    ("C=CCC[CH2][Sn]([c]1ccccc1)([c]1ccccc1)[c]1ccccc1", 98),
    ("CCCC[CH2][Pb]([CH2]CCCC)([CH2]CCCC)[O]C(C)=O", 99),
    ("[Cl][Hg][Cl].c1ccc(CSc2ccccc2)cc1", 99),
    ("CSc1ncc(COP(=S)(OCc2cnc(SC)nc2N)OCc2cnc(SC)nc2N)c(N)n1", 3),
    ("CN(CCc1ccc(Br)cc1)CCN1CCCCC1", 86),
    ("COC(=O)C1=C(C(=O)OC)C2OC1c1cc3ccccc3cc12", 100),
    ("CCOc1cc(/C=C/[N+](=O)[O-])ccc1O", 95),
]

What the record says about O=[As]c1ccc([N+](=O)[O-])cc1 (stereo not drawn) : growth inhibition is 99

# growth inhibition of CCC(C)N1CN(c2ccccc2)C2(CCN(CC3COc4ccccc4O3)CC2)C1=O (stereo not drawn) = 9

Entry under test: O=C(O)Cc1ccc2c(c1)OCO2.[Ag] . Its growth inhibition was 94

Value of growth inhibition reported for the molecule O=C1C(Cl)=C(Cl)C(=O)N1c1ccc(F)cc1 is 100

* * *

protocolSummary: NCI Yeast Anticancer Drug Screen. Data for the mec2-1 strain (AID 157)
protocolConditions: S. cerevisiae mec2-1 strain, at 50.0 µM (retest, dose inferred, filed as 5.0)
Description: Growth inhibition of yeast strains with defined genetic alterations is measured as a screen for potential anti-cancer activity. Selected strains with alterations in DNA damage repair or cell cycle control were exposed to compounds and growth inhibition was measured relative to vehicle treated controls. The strain used in this assay is mec2-1
About 79,000 compounds went through this panel and 15% of them were active in at least one assay; those are over-represented in the sample as a whole. Active and inactive are the calls of the source. Cut-off read from the data, not from the text of the source: active = growth inhibition above about 70%; inactive = the rest.
Field 'call' accepts active, inactive

# compound, labelValue
data = [
    ("COC(=O)C1c2cc3c(c(O)c2C(O)CC1(C)O)C(=O)c1c(O)cc2c(c1C3=O)OC1OC2(C)C(O)C(N(C)C)C1O (centres undefined)", "active"),
    ("[CH3][Sn]([CH3])([Cl])[c]1cc[c]([Sn]([CH3])([CH3])[Cl])cc1", "inactive"),
    ("ClCC[N+]12CC[N+](CCCl)(CC1)C2", "active"),
]

--- query ---
Ask: Kindly provide the recorded test outcome for the following compound: CC(=O)[O][Hg][c]1cc2c(cc1O)Cc1cc([N+](=O)[O-])ccc1-2
Result: active

* * *

protocolSummary: NCI Yeast Anticancer Drug Screen. Data for the mec2-1 strain (AID 157)
protocolConditions: S. cerevisiae mec2-1 strain, at 3.7 µM, stronger effect = higher value
Method: Growth inhibition of yeast strains with defined genetic alterations is measured as a screen for potential anti-cancer activity. Selected strains with alterations in DNA damage repair or cell cycle control were exposed to compounds and growth inhibition was measured relative to vehicle treated controls. The strain used in this assay is mec2-1
The panel holds about 79,000 compounds, 15% with a hit somewhere; the sample as a whole holds those more often.
recordedMetric: growth inhibition (%)
Use % as the unit, but write only the number.

# compound, uom, resultValue
data = [
    ("CC1=C2C(=C[C@@](C)(CO)[C@@H]2O)C(=O)[C@](C)(O)C12CC2", "%", 0),
]

Noted for COC(=O)C1C2c3ccccc3C(c3ccccc32)C1C(=O)OC (stereo not given) : its growth inhibition reads -3

Entry under test: CO[C@H](/C(C)=C/C=C/C(C)=C/c1coc(C)n1)[C@H](C)[C@H]1C[C@@H](O)[C@@]2(C)O[C@H]2/C=C/[C@@H](C)[C@@H]2C[C@@H](CC(=O)O2)C[C@H]2O[C@@H]2C(=O)O1 . Its growth inhibition was -5

Notebook: OCC(O)C(O)CO (stereo not given) (tested in a mixture with another compound) , growth inhibition read as 0

Lab note: measured growth inhibition of O=C(O)C1C2c3ccccc3C(c3ccccc32)C1C(=O)O (stereo not given) was -5

* * *

protocolSummary: NCI Yeast Anticancer Drug Screen. Data for the mgt1 strain (AID 153)
protocolConditions: S. cerevisiae mgt1 mutant growth inhibition; at 11.0 µM; stronger effect = higher value
Compounds without any hit were thinned out: in the full panel of roughly 79,000, 15% have a hit.
Items are presented alongside their recorded growth inhibition.
# output: bare number, implied unit %

# molecule, uom, growth inhibition
data = [
    ("CCOC(=O)C1([Se]c2ccccc2)CCCC1=O (stereo not given)", "%", 4),
    ("BrCC[N+]12CC[N+](CCBr)(CC1)C2", "%", 42),
    ("CO[C@H](/C(C)=C/C=C/C(C)=C/c1coc(C)n1)[C@H](C)[C@H]1C[C@@H](O)[C@@]2(C)O[C@H]2/C=C/[C@@H](C)[C@@H]2C[C@@H](CC(=O)O2)C[C@H]2O[C@@H]2C(=O)O1", "%", -6),
    ("Cc1ccc2c(c1)C1(C)c3cc(C)ccc3SP1S2 (stereo not given)", "%", 9),
    ("CC[C@](O)(C(=O)O)c1cc2n(c(=O)c1CO)Cc1cc3ccccc3nc1-2", "%", 67),
    ("CCN(CCCl)c1cc(CN(C)C)cc(NC(=O)c2ccc(C(=O)Nc3cc(CN(C)C)cc(N(CC)CCCl)c3)cc2)c1", "%", -6),
    ("O=P(CCCCP(=O)(c1ccccc1)c1ccccc1)(c1ccccc1)c1ccccc1.[Cl][Sn]([Cl])([c]1ccccc1)[c]1ccccc1", "%", 74),
    ("C[C@]12CC[C@H](O)CC1=CC[C@@H]1[C@@H]2CC[C@]2(C)C(=O)CC[C@@H]12", "%", -62),
]

Sure, the documented growth inhibition for COc1ccc(/C=C(/C)[N+](=O)[O-])cc1 is 0

Recorded result, COc1cc(C2c3cc4c(cc3[C@@H](Nc3ccc(N)cc3)C3COC(=O)[C@H]23)OCO4)cc(OC)c1O (stereo not given in full) , growth inhibition: 94

Sample C[N+](C)(C)CC1CCCC(C[N+](C)(C)C)C1=O (stereo not given) ; growth inhibition observed: 5

Query O=C(O)CCCOc1cc(Cl)c(Cl)cc1Cl yields growth inhibition of -13

Reported growth inhibition ( COC(=O)C1=C(C(=O)OC)C2OC1c1cc3ccccc3cc12 ) = 93

The reported value for CCNC(=O)OCC1C2=C(C(=O)C(C)=C(N)C2=O)N2CC3C(N3C)C12OC (stereo not given) in terms of growth inhibition is 21

Given item O=C1OC2C(O1)C1(Cl)C(Cl)=C(Cl)C2(Cl)C1(Cl)Cl (stereo not given) , the value recorded as its growth inhibition is -3
